Target Under Test: T1, 4H363-bN
T1 chain: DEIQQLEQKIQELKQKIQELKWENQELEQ
Assay Protocol: two-hybrid library CCNG1;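 further: natural log of median RNA to DNA barcode read ratio; higher means stronger binding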
Experimental Readout: interaction score

Sample answers from the record:
DEIQQLEQKIQELKQKIQELKWENQELEQ [4H363-bN]; 0.903
DKIQQLKQEIQELEQEIQELEWKNQELKQ [4H2568-bN]; 0.932
DKIQQLKQENQELEQKNQELKWEIQELEQ [4H2745-bN]; -0.693
DENQQLEQEIQELEQENQELEWKIQELKQ [4H1046-bN]; -0.252

[A] DENQQLEQEIQELEQKIQELKWKNQELKQ [4H1072-bN]
[B] DEIQQLEQKIQELKQENQELEWKNQELKQ [4H344-bN]
Query :: Exercise: compare A and B ; which one has the greater interaction score? Output the label that corresponds to your choice.
Result :: A
(A: 1.58, B: -2.06)

[1] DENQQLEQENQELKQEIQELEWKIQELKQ [4H1222-bN]
[2] DKIQQLKQEIQELEQKNQELKWENQELEQ [4H2619-bN]
Query :: Returns the identifier with the smallest measured interaction score among 1 and 2 . Identify your pick by its label.
Result :: 2
